studyTarget: T1, human IL12Rβ2, cell-expressed (human, UniProt Q99665 24-862)
T1 sequence (looked up): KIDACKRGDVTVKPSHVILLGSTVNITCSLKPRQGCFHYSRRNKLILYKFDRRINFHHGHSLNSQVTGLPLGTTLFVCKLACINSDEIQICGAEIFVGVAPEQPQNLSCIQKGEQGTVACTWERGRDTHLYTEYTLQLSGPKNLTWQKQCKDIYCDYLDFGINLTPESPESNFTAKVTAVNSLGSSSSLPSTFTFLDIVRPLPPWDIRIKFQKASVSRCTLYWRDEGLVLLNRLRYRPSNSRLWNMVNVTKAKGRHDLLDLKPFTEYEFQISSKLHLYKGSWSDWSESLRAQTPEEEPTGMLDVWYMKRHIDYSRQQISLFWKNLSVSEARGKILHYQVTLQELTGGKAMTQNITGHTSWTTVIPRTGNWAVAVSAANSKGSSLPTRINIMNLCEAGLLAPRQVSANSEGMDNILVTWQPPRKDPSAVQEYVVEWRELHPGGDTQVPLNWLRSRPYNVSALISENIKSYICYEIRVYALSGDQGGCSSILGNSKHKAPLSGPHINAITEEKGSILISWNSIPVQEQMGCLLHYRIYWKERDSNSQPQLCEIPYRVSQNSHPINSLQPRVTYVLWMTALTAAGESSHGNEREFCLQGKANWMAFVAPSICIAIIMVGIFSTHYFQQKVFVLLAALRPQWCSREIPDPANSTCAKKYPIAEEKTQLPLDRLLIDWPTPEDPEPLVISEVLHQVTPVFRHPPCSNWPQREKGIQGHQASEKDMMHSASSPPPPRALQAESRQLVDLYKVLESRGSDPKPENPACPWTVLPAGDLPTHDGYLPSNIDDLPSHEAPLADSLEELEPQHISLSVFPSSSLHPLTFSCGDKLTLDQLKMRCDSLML
experimentDescription: cell-based or functional assay
valueKind: IC50, IFNγ release, PBMC D840 (nM)
State just the number; it will be interpreted in nM.

Example cases with answers are listed next.
IL12Rb2#2: 135A07 (VHH, also called IL12Rβ2#2; LG135A07) VHH: EVQLVESGGRLVQAGDSLRLSCAASGRTFTSYRMGWFRQAPGKEREFVSALRWSSGNIDYTYYADSVKGRFSISGDYAKNTVYLQMNSLKAEDTAVYYCAASTRWGVMESDTEYTSWGQGTLVTVSS	40
IL12Rb2#1: 135B08 (VHH, also called IL12Rβ2#1; LG135B08) VHH: EVQLVESGGRLVQAGDSLRLSCAASGRTFISYRMGWFRQAPGKEREFVAALRWSSSNIDYTYYADSVKGRFSISGDYAKNTVYLQMNSLKAEDTAVYYCAASTRWGVMESDTEYTSWGQGTLVTVSS	13.5

Proceed to the following item.
Recorded IC50, IFNγ release, PBMC D840 of IL12Rb2#1-35GS-CD4#8 (bispecific antibody, defined by its make-up (Nb1-Nb2)) EVQLVESGGRLVQAGDSLRLSCAASGRTFISYRMGWFRQAPGKEREFVAALRWSSSNIDYTYYADSVKGRFSISGDYAKNTVYLQMNSLKAEDTAVYYCAASTRWGVMESDTEYTSWGQGTLVTVSSGGGGSGGGGSGGGGSGGGGSGGGGSGGGGSGGGGSEVQLVESGGGSVQPGGSLTLSCGTSGRTFNVMGWFRQAPGKEREFVAAVRWSSTGIYYTQYADSVKSRFTISRDNAKNTVYLEMNSLKPEDTAVYYCAADTYNSNPARWDGYDFRGQGTLVTVSS , please.
1.1
